# SUBJECT OF TEST: UBE2H
# RUN DESCRIPTION: reporter assay of Huesken 2005; also: test concentration or dose not given here
# REPORTED CONDITIONS: siRNA
Oligonucleotides are written 5' to 3', each unit as a sugar letter and its base; * is a phosphorothioate linkage, no mark a phosphodiester; rarer units and linkages stand in square brackets, end groups in braces. Plain capitals give the bases only. d = 2'-deoxy (DNA); r = 2'-OH (RNA)
// normalised inhibition (eCFP-eYFP dual reporter) lookup, one value per entry
VALUE TYPE: normalised inhibition (eCFP-eYFP dual reporter) (%)

SUBSTANCE	READOUT VALUE
sense rUrUrArUrGrGrArCrCrArCrArArGrGrArArCrAdTdT / antisense rUrGrUrUrCrCrUrUrGrUrGrGrUrCrCrArUrArAdAdA	91.7
sense rArUrGrArGrGrUrUrArCrGrArUrCrCrUrGrGrGdTdT / antisense rCrCrCrArGrGrArUrCrGrUrArArCrCrUrCrArUdGdT	77.7
sense rArArArGrUrUrArGrArGrUrGrGrArCrCrUrArCdTdT / antisense rGrUrArGrGrUrCrCrArCrUrCrUrArArCrUrUrUdCdC	50
sense rArGrUrGrArArGrUrUrUrUrArUrGrGrArCrCrAdTdT / antisense rUrGrGrUrCrCrArUrArArArArCrUrUrCrArCrUdAdC	95.5
sense rCrUrUrGrGrArCrArGrCrUrCrUrCrUrArUrGrAdTdT / antisense rUrCrArUrArGrArGrArGrCrUrGrUrCrCrArArGdTdT	81
sense rCrArGrArArGrArArUrArCrArArGrCrArGrArAdTdT / antisense rUrUrCrUrGrCrUrUrGrUrArUrUrCrUrUrCrUrGdGdT	77.7
sense rUrArGrArUrGrUrArArUrUrArArUrCrArArArCdTdT / antisense rGrUrUrUrGrArUrUrArArUrUrArCrArUrCrUrAdGdA	46.5
sense rArCrUrUrGrGrArCrArGrCrUrCrUrCrUrArUrGdTdT / antisense rCrArUrArGrArGrArGrCrUrGrUrCrCrArArGrUdTdT	86
sense rGrArUrCrUrUrArCrCrArArUrArUrArUrUrUrGdTdT / antisense rCrArArArUrArUrArUrUrGrGrUrArArGrArUrCdAdT	78.3
sense rUrArCrCrArArUrArUrArUrUrUrGrArGrUrCrCdTdT / antisense rGrGrArCrUrCrArArArUrArUrArUrUrGrGrUrAdAdG	48.6
sense rCrGrCrCrArCrGrGrArGrGrArGrGrCrGrCrUrGdTdT / antisense rCrArGrCrGrCrCrUrCrCrUrCrCrGrUrGrGrCrGdTdA	66.8
sense rArArUrArUrArUrUrUrGrArGrUrCrCrUrUrCrCdTdT / antisense rGrGrArArGrGrArCrUrCrArArArUrArUrArUrUdGdG	41.6
sense rUrGrArUrCrUrUrArCrCrArArUrArUrArUrUrUdTdT / antisense rArArArUrArUrArUrUrGrGrUrArArGrArUrCrAdTdA	68.4
sense rGrGrGrUrArCrCrGrGrGrGrArCrArGrCrUrCrAdTdT / antisense rUrGrArGrCrUrGrUrCrCrCrCrGrGrUrArCrCrCdTdC	71.9
sense rArGrGrArArCrUrGrUrGrUrGrUrCrUrArGrArUdTdT / antisense rArUrCrUrArGrArCrArCrArCrArGrUrUrCrCrUdGdA	100
sense rGrUrGrArArGrUrUrUrUrArUrGrGrArCrCrArCdTdT / antisense rGrUrGrGrUrCrCrArUrArArArArCrUrUrCrArCdTdA	63.8
sense rArArArUrCrUrCrCrArUrCrUrArUrArGrGrArUdTdT / antisense rArUrCrCrUrArUrArGrArUrGrGrArGrArUrUrUdGdA	96.4
sense rArArGrUrUrArGrArGrUrGrGrArCrCrUrArCrCdTdT / antisense rGrGrUrArGrGrUrCrCrArCrUrCrUrArArCrUrUdTdC	64.2
sense rArGrGrGrUrArCrCrGrGrGrGrArCrArGrCrUrCdTdT / antisense rGrArGrCrUrGrUrCrCrCrCrGrGrUrArCrCrCrUdCdT	77.2
sense rGrArCrGrCrUrGrCrArGrCrCrArUrGrUrArCrCdTdT / antisense rGrGrUrArCrArUrGrGrCrUrGrCrArGrCrGrUrCdAdC	55.3
sense rUrArUrArGrGrArUrUrCrArUrGrArArUrArArAdTdT / antisense rUrUrUrArUrUrCrArUrGrArArUrCrCrUrArUrAdGdA	67.9
sense rArGrGrUrUrArCrGrArUrCrCrUrGrGrGrArGrGdTdT / antisense rCrCrUrCrCrCrArGrGrArUrCrGrUrArArCrCrUdCdA	84.1
sense rArArCrArCrCrArUrArUrGrArArGrGrCrGrGrAdTdT / antisense rUrCrCrGrCrCrUrUrCrArUrArUrGrGrUrGrUrUdCdC	67.8
sense rArCrArGrCrUrCrUrCrUrArUrGrArUrCrUrUrAdTdT / antisense rUrArArGrArUrCrArUrArGrArGrArGrCrUrGrUdCdC	95.8

The reported numbers originate from the OligoGym collection.
